Target: T1, CXCR2 (UniProt P25025 1-360, limits assumed)
T1 construct: also called IL-8R
T1 sequence (looked up): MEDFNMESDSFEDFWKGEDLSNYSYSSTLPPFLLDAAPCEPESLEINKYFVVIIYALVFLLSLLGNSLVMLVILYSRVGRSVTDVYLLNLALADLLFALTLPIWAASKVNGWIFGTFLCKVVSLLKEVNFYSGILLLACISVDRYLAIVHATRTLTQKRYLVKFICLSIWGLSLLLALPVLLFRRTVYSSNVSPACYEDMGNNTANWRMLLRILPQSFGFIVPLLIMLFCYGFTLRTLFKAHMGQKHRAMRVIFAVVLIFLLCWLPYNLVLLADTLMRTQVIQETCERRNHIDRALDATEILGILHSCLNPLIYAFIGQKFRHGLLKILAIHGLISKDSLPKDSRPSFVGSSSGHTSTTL
Assay: indirect ELISA, ONCO P8-CXCR2 complex formation
result-type: Kd
Units required after the number.

Exercise: So what's the measured Kd for this one? ONCO P-8 (Designed analogue of CXCL8 (IL-8), described as an antagonist of CXCR1 and CXCR2; also called chemokine receptor antagonistic modified peptide) GSKELRCQCIRSYSKPFHPKFIKELRVIPASQFCANTEIIVKLSDGRELCLDPKENWVQRVVEKFLKRAENS
Solution: 139 nM
